TESTED_ON: furin, P09958
Sequence (P09958 whole entry): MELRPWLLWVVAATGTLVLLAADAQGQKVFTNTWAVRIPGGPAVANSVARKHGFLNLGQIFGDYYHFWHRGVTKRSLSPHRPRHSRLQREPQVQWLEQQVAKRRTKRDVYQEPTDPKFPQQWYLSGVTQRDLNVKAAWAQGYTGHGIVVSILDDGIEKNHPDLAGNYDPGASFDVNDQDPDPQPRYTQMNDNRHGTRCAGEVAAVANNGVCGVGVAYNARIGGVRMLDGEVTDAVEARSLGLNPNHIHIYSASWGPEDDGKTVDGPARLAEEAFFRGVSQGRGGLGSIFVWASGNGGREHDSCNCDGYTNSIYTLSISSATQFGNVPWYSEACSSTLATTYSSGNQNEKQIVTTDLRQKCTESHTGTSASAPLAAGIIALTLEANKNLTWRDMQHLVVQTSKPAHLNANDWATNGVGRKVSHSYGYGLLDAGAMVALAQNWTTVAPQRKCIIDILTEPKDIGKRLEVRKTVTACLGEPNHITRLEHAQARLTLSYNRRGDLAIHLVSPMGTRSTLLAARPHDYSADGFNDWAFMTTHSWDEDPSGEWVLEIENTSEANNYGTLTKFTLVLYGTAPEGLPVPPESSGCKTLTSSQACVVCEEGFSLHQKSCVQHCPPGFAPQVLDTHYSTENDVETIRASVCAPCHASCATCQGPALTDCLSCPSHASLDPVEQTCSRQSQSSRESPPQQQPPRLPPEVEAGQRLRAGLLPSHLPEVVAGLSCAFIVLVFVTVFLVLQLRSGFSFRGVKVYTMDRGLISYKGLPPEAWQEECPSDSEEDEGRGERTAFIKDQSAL
PROCEDURE_TEXT: furin cleavage Z-score vs untreated control; higher = more cleavage, active = 3.5 or more, inactive = 1 or less, 8 variable residues between constant flanks;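 also: purified furin at 1:10 enzyme:substrate in 50 mM HEPES pH 7.5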
TEST_CONDITIONS: 7.5 min
The other results are listed elsewhere or left out. No count for the full screen is at hand.
Give furin cleavage Z-score for every item shown.
Simply state the number, no unit and no words.

Consider the sequence CASTFCSAHLAGNASASA [HC2507] and give its recorded furin cleavage Z-score. -0.833

Consider the sequence CALDMIAGAHAGNASASA [HC333] and give its recorded furin cleavage Z-score. -0.265

Consider the sequence CASNPCSAHLAGNASASA [HC2501] and give its recorded furin cleavage Z-score. 0.199

Consider the sequence CARAKRSPKHAGNASASA [FS-2639] and give its recorded furin cleavage Z-score. 5.3

Consider the sequence CARRRRNKRYAGNASASA [FS-1403] and give its recorded furin cleavage Z-score. 12.8

Consider the sequence CARNKRLSISAGNASASA [FS-3007] and give its recorded furin cleavage Z-score. 0.116

Consider the sequence CAAGYSGGDIAGNASASA [HC1647] and give its recorded furin cleavage Z-score. -1.51
